Taken from PubChem BioAssay (NCATS).

- assayDetails: qHTS for differential inhibitors of proliferation of Plasmodium falciparum line 3D7 (AID 1876)
- cond: P. falciparum 3D7 proliferation inhibition; series mostly up to 28.7 µM
Records with an inconclusive call do not appear. Activity calls are given as the source filed them. Calls follow the shape of the dose curve; as a rule, active = well fitted curve in the direction sought with a large enough effect; inconclusive = small, poorly fitted or top-dose-only effect, or another doubt; inactive = no such curve, though single readings can be large or run the other way.
Choose the fitting class; nothing outside active, inactive is accepted.

What did the test return for O=C1NCN(c2ccccc2)C12CCN(CCCC(c1ccc(F)cc1)c1ccc(F)cc1)CC2 ?
active

What did the test return for CN(C)C(=O)Oc1ccc[n+](C)c1 ?
inactive

What did the test return for C=CCc1ccccc1OCC(O)CNC(C)C (stereo unspecified) ?
active

What did the test return for CCCCNc1c(C(=O)OCC)c(C)nc2c1cnn2CC ?
active

What did the test return for CN(C)CC/C=C1\c2ccccc2COc2ccccc21 ?
active

What did the test return for NC(=O)c1ncn([C@@H]2O[C@H](CO)[C@@H](O)[C@H]2O)c1O ?
inactive

What did the test return for COc1ccc(CN(CCN(C)C)c2ccccn2)cc1 ?
inactive

What did the test return for COc1ccc(CCN(C)CCCC(C#N)(c2cc(OC)c(OC)c(OC)c2)C(C)C)cc1OC (stereo unspecified) ?
active

What did the test return for COCC(=O)O[C@]1(CCN(C)CCCc2nc3ccccc3[nH]2)CCc2cc(F)ccc2[C@@H]1C(C)C ?
active

What did the test return for CCCCNC(=O)NS(=O)(=O)c1ccc(C)cc1 ?
inactive

What did the test return for CN1CCN(CC(=O)N2c3ccccc3C(=O)Nc3cccnc32)CC1 ?
inactive

---

- subjectOfTest: ATPase family AAA domain-containing protein 5 (Homo sapiens) (UniProt Q96QE3)
- Sequence (Q96QE3 whole entry, looked up, the tested form may be a part): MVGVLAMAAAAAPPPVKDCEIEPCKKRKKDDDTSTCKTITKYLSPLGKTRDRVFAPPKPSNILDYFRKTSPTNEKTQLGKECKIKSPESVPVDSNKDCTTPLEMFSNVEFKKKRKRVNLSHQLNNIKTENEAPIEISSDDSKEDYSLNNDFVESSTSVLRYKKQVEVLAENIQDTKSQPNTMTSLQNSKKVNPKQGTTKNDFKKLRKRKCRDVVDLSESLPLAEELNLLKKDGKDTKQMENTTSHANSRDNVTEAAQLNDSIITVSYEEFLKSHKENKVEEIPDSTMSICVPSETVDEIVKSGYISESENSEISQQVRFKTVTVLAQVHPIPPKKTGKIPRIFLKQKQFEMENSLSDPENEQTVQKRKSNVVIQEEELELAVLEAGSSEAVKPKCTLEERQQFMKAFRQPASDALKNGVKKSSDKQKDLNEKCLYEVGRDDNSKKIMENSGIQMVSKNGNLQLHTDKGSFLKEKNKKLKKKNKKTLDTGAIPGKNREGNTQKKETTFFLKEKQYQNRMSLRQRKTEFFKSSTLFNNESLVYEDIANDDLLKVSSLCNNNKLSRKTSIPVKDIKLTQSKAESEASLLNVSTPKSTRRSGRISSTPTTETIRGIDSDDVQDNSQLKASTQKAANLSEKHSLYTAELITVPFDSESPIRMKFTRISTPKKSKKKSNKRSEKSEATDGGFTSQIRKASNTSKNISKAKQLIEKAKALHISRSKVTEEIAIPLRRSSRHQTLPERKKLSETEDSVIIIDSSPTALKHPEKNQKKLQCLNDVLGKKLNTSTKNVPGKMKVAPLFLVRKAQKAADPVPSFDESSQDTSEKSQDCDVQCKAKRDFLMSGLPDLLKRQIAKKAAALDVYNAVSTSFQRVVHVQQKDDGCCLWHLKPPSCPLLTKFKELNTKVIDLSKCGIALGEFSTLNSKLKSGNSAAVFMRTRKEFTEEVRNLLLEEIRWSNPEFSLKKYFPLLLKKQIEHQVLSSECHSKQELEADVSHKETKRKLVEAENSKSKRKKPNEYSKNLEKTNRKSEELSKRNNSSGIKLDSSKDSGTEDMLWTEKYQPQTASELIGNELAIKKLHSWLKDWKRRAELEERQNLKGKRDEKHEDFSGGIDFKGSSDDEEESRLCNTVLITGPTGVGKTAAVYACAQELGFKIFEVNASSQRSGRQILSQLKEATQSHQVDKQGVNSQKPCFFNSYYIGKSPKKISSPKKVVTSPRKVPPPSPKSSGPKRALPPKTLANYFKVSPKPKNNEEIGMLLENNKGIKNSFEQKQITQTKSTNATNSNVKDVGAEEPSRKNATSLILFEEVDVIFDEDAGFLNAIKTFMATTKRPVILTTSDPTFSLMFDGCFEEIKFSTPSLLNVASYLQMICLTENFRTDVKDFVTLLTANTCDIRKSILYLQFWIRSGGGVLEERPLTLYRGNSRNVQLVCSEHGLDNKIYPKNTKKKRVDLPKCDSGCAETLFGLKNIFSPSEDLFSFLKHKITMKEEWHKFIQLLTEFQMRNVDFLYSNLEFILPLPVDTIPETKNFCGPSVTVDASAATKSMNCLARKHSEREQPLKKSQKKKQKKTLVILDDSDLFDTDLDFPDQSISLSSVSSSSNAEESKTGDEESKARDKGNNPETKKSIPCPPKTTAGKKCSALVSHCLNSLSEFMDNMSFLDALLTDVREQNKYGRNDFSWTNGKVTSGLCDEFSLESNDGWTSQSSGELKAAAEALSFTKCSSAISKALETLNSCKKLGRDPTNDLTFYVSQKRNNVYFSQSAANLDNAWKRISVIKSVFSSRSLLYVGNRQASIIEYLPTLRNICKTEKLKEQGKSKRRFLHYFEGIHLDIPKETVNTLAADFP
- assayDetails: Validation screen for small molecules that inhibit ELG1-dependent DNA repair in human embryonic kidney (HEK293T) cells expressing luciferase-tagged ELG1 (AID 493107); also: nearly all actives have a fitted effect of over 70% in size
- cond: HEK293T ELG1-luciferase level, luminescence, 5-fluorouridine co-treatment, 16 h; series mostly up to 46.1 µM
Results filed as inconclusive are left out. Calls of active or inactive are those of the source. The call rests on the fitted dose curve; in most records, active means well fitted inhibition curve with a large enough effect; inconclusive means small, poorly fitted or top-dose-only effect, or effect the other way; inactive means flat fitted curve, though single readings scatter.
Choose the fitting class; nothing outside 1 for active, -1 for inactive is accepted.

Would you please look over these solved cases?
>>> cat("COC(=O)[C@H]1[C@H]2C[C@@H]3c4[nH]c5cc(OC)ccc5c4CCN3C[C@H]2C[C@@H](OC(=O)c2cc(OC)c(OC)c(OC)c2)[C@@H]1OC")
1
>>> cat("CCN(CC)CCNC(=O)c1ccc(NC(C)=O)cc1")
-1
>>> cat("CCCN(CCC)C(=O)C(CCC(=O)O)NC(=O)c1ccccc1 (configuration not stated)")
-1
>>> cat("COc1ccc([C@@H]2Sc3ccccc3N(CCN(C)C)C(=O)[C@@H]2OC(C)=O)cc1")
-1
>>> cat("CCCN1C[C@H](CSC)C[C@@H]2c3cccc4[nH]cc(c34)C[C@H]21")
-1

What did the test return for CC(=O)[C@@]1(O)CC[C@H]2[C@@H]3CCC4=CC(=O)CC[C@]4(C)[C@H]3CC[C@@]21C ?
-1

What did the test return for C[C@H](CS)C(=O)N1CCC[C@H]1C(=O)O ?
-1

What did the test return for CCn1cc(C(=O)O)c(=O)c2cc3c(cc21)OCO3 ?
-1

What did the test return for CCCCCN(CCCCC)C(=O)C(CCC(=O)O)NC(=O)c1ccc(Cl)c(Cl)c1 (configuration not stated) ?
-1

What did the test return for C[C@]12C=CC(=O)C=C1CC[C@H]1[C@@H]3C[C@@H](O)[C@](O)(C(=O)CO)[C@@]3(C)C[C@H](O)[C@@]12F ?
-1

What did the test return for CN(C)C(=O)Oc1cccc([N+](C)(C)C)c1 ?
-1

What did the test return for c1cc(CN2CCCCC2)cc(OCCCNc2nc3ccccc3s2)c1 ?
-1

What did the test return for NC(=O)c1ncn([C@@H]2O[C@H](CO)[C@@H](O)[C@H]2O)c1O ?
-1

What did the test return for CCC(=O)c1ccc2c(c1)N(CCCN(C)C)c1ccccc1S2 ?
-1

What did the test return for Cc1ccc(=O)n(-c2ccccc2)c1 ?
-1

What did the test return for COCCCC/C(=N\OCCN)c1ccc(C(F)(F)F)cc1 ?
-1

What did the test return for CCN1CCc2nc(N)oc2CC1 ?
-1

What did the test return for CO[C@@]1(NC(=O)CSCC#N)C(=O)N2C(C(=O)O)=C(CSc3nnnn3C)CS[C@@H]21 ?
-1

What did the test return for CNCCC(Oc1ccccc1OC)c1ccccc1 (configuration not stated) ?
-1

What did the test return for CN1CCN(C2=Nc3ccccc3Oc3ccc(Cl)cc32)CC1 ?
-1

What did the test return for NS(=O)(=O)c1cc2c(cc1Cl)NC(C1CC3C=CC1C3)NS2(=O)=O (configuration not stated) ?
-1

What did the test return for CNCCCN1c2ccccc2CCc2ccccc21 ?
-1

What did the test return for O=C(O)CN(CCN(CC(=O)O)CC(=O)O)CCN(CC(=O)O)CC(=O)O ?
-1

What did the test return for NC/C=C/C(=O)O ?
-1

What did the test return for Cc1ccc(/C(=C\CN2CCCC2)c2ccccn2)cc1 ?
-1

What did the test return for CCCOc1ccccc1-c1nc2n[nH]nc2c(=O)[nH]1 ?
-1

What did the test return for O=C1CC2(CCCC2)CC(=O)N1CCCCN1CCN(c2ncccn2)CC1 ?
-1

What did the test return for COc1cc2c(cc1OC)-c1cc(=Nc3c(C)cc(C)cc3C)n(C)c(=O)n1CC2 ?
1

---

- subjectOfTest: D(1A) dopamine receptor (Homo sapiens) (UniProt P21728)
- Sequence (P21728 whole entry, looked up): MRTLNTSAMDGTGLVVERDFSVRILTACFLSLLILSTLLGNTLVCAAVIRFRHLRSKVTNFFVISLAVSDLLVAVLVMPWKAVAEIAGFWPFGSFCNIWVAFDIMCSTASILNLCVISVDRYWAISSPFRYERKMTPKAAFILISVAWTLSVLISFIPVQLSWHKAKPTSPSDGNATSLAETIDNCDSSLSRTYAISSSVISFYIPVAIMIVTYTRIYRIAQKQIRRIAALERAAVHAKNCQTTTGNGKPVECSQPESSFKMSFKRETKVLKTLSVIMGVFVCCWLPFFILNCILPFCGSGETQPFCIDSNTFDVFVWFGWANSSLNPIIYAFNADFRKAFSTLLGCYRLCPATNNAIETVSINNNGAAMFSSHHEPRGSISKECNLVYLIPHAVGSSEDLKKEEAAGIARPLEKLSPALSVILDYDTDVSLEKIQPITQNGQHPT
- assayDetails: HTS Assay for Allosteric Agonists of the Human D1 Dopamine Receptor: Primary Screen for Antagonists (AID 488983);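 also: calcium flux response to an EC80 dopamine challenge measured with no-wash dye; % is scaled to controls: 0 for no effect and ±100 for the full control effect; nearly all actives have a fitted effect of over 65% in size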
- cond: D1 receptor cell assay, antagonist mode, qHTS titration; series mostly up to 41.8 µM
Inconclusive results are not listed. Activity calls are given as the source filed them. Calls follow the shape of the dose curve; as a rule, active = well fitted inhibition curve with a large enough effect; inconclusive = small, poorly fitted or top-dose-only effect, or effect the other way; inactive = flat fitted curve, though single readings scatter.
Choose the fitting class; nothing outside label 1 = active, label 0 = inactive is accepted.

>>> cat("CCc1cccc(N(C)C(N)=Nc2cccc3ccccc23)c1")
"label 0"

Below: the item to evaluate.
What did the test return for O=C(O)CP(=O)(O)O ?
label 0

---

- subjectOfTest: Nicotinamide N-methyltransferase (Homo sapiens)
- assayDetails: Confirmatory Screen for Target Class Profiling of Small Molecule Inhibitors of Methyltransferases (AID 1745852)
- cond: MTase-Glo luminescence, SAH detection, recombinant enzyme; measured here: NNMT max response; stronger effect = lower value
valueKind: activity (%)
Just the number in %, nothing appended.

Study these solved cases before continuing.
>>> experimentalvalue("CCC(=O)c1ccc2c(c1)N(CCCN(C)C)c1ccccc1S2")
-51.8
>>> experimentalvalue("CCc1c(C)[nH]c2c1C(=O)C(CN1CCOCC1)CC2 (centres undefined)")
-7.58
>>> experimentalvalue("COC(=O)[C@@H](N)Cc1ccc(O)c(O)c1")
4.06
>>> experimentalvalue("COc1cc(C(=O)OCCCN2CCCN(CCCOC(=O)c3cc(OC)c(OC)c(OC)c3)CC2)cc(OC)c1OC")
-4.53
>>> experimentalvalue("CC1=C(C)C(=O)C(CCCCC#CCCCC#CCO)=C(C)C1=O")
-9.42
>>> experimentalvalue("NC(N)=N/N=C/c1c(Cl)cccc1Cl")
-52.2

Give the measured activity of CCCN(CCC)CCc1cccc2c1CC(=O)N2 .
1.36

Give the measured activity of NC1=NCC2c3ccccc3Cc3ccccc3N12 (centres undefined) .
-14.5

Give the measured activity of CCc1cccc(N(C)C(N)=Nc2cccc3ccccc23)c1 .
-4.43

---

Examples of molecules with documented activation follow.
- subjectOfTest: Thyrotropin-releasing hormone receptor (Homo sapiens)
- assayDetails: qHTS for Small Molecule Agonists and Allosteric Enhancers of Human TRH Receptor: Validation Screen for Agonists (AID 493127);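 also: intracellular calcium rise by fluo-8 fluorescence before TRH EC20 addition; 0% is about no effect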
- cond: TRH receptor agonist cell assay; at 2 µM; stronger effect = higher value
Just the number in %, nothing appended.

>>> experimentalvalue("CCN(CC)CCNC(=O)c1cc(S(C)(=O)=O)ccc1OC")
0.0625
>>> experimentalvalue("NC/C=C/C(=O)O")
0.688
>>> experimentalvalue("O=C(CCCN1CCC(O)(c2cccc(C(F)(F)F)c2)CC1)c1ccc(F)cc1")
3.56

Give the measured activation of CCCC(C(=O)OCCN(CC)CC)(c1ccccc1)c1ccccc1 .
-7.5

---

- Test system: HaCat
- assayDetails: Cytotoxic Profiling of Annotated Libraries Using Quantitative High-Throughput Screening (AID 1296008); also: % is scaled to controls: 0 for no effect and ±100 for the full control effect; nearly all actives have a fitted effect of over 60% in size
- cond: Five cell lines viability, CellTiter-Glo ATP luminescence, 48-72 h; stronger effect = lower value
Records with an inconclusive call do not appear.
Examples of molecules with documented max response follow.
Just the number in %, nothing appended.

>>> experimentalvalue("C[C@]12CCC(=O)C=C1CC[C@@H]1[C@@H]2CC[C@@]2(C)[C@H]1CC[C@]2(O)C(=O)CO")
-3.7

Give the measured max response of CCCCNc1ccc(C(=O)OCCN(C)C)cc1 .
-3.56

Give the measured max response of O=c1[nH]c(=O)n([C@H]2C[C@H](O)[C@@H](CO)O2)cc1Br .
2.47

Give the measured max response of CC(=O)[C@@]1(O)CC[C@H]2[C@@H]3CCC4=CC(=O)CC[C@]4(C)[C@H]3CC[C@@]21C .
1.18

Give the measured max response of CC(C(=O)O)c1ccc(CC2CCCC2=O)cc1 (configuration not stated) .
-3.69

Give the measured max response of CC1=C(C)C(=O)C(CCCCC#CCCCC#CCO)=C(C)C1=O .
-15.6

Give the measured max response of NC(=O)c1cn(Cc2c(F)cccc2F)nn1 .
0.796

Give the measured max response of Cc1ccc(Cl)c(Nc2ccccc2C(=O)O)c1Cl .
-3.9

Give the measured max response of NC(N)=N/N=C/c1c(Cl)cccc1Cl .
-6.3

Give the measured max response of CC(C)[N+](C)(CCOC(=O)C1c2ccccc2Oc2ccccc21)C(C)C .
-8.6

Give the measured max response of C(=C\c1ccccc1)/CN1CCN(C(c2ccccc2)c2ccccc2)CC1 .
-6.19
